Target: Peroxisome proliferator-activated receptor alpha (Homo sapiens, UniProt Q07869)
Sequence (Q07869 whole entry, the tested form may be a part): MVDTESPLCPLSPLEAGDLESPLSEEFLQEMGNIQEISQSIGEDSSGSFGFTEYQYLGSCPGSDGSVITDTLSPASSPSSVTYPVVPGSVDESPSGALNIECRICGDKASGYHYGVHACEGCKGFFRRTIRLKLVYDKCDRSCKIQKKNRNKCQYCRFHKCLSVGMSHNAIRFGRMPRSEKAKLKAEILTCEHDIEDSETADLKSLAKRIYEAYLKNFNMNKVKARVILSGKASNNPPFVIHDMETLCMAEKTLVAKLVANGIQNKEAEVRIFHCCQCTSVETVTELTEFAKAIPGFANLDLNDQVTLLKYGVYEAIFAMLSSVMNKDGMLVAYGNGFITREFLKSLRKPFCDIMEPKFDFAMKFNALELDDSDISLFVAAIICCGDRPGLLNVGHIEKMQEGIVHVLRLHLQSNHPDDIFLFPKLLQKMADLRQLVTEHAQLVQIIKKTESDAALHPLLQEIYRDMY
Assay: Agonist activity at yeast Gal4-fused human PPARalpha LBD transfected in human HepG2 cells assessed as transactivation by measuring beta-galactosidase activity incubated for 20 hrs by luminometry
Can you tell me EC50 for the items I'm about to list?
State the answer as a number, implicitly in nM.

# get_value(readout='EC50', item= COc1ccc(C(=O)c2ccc(CSCC(NC(=O)OC(C)(C)C)C(=O)O)cc2)cc1 (stereo unspecified) ) 380

# get_value(readout='EC50', item= CC(SCc1ccccc1)C(NC(=O)c1ccccc1)C(=O)O (stereo unspecified) ) 9100

# get_value(readout='EC50', item= CC(C)(C)OC(=O)NC(CSCc1ccc(C(=O)c2ccc([N+](=O)[O-])cc2)cc1)C(=O)O (stereo unspecified) ) 4800

# get_value(readout='EC50', item= O=C(NC(CSCc1ccc(Cc2ccc(Cl)cc2)cc1)C(=O)O)OCc1ccccc1 (stereo unspecified) ) 16

# get_value(readout='EC50', item= O=C(NC(CSCc1ccc(C(=O)c2ccccc2)cc1)C(=O)O)OCc1ccccc1 (stereo unspecified) ) 1900

# get_value(readout='EC50', item= CC(C)(C)OC(=O)NC(CSCc1ccc(Cc2ccccc2)cc1)C(=O)O (stereo unspecified) ) 580

# get_value(readout='EC50', item= O=C(NC(CSCc1ccc(-c2ccc(Cl)cc2)cc1)C(=O)O)OCc1ccccc1 (stereo unspecified) ) 135

# get_value(readout='EC50', item= CC(C)(C)OC(=O)N[C@@H](CSCc1ccc(C(=O)c2ccccc2)cc1)C(=O)O ) 1600

# get_value(readout='EC50', item= Cc1ccc(C(=O)c2ccc(CSCC(NC(=O)OC(C)(C)C)C(=O)O)cc2)cc1 (stereo unspecified) ) 940

# get_value(readout='EC50', item= CC(C)(C)OC(=O)NC(CSCc1ccc(/C=C/C(=O)c2ccccc2)cc1)C(=O)O (stereo unspecified) ) 800

# get_value(readout='EC50', item= CC(C)(C)OC(=O)NC(COCc1ccc(-c2ccccc2)cc1)C(=O)O (stereo unspecified) ) 7200
